Target: CDK9/CyclinT (Homo sapiens (Human), UniProt P50750)
Sequence (P50750 whole entry): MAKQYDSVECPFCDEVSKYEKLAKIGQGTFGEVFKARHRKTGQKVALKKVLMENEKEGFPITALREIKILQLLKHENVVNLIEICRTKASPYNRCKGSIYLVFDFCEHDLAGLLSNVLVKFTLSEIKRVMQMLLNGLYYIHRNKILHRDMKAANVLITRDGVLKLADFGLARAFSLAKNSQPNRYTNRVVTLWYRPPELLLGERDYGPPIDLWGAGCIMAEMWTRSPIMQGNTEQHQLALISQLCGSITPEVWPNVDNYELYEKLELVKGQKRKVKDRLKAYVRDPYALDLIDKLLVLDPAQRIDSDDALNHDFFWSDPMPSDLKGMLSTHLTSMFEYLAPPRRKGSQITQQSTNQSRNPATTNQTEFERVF
Sequence (O60563 whole entry partner): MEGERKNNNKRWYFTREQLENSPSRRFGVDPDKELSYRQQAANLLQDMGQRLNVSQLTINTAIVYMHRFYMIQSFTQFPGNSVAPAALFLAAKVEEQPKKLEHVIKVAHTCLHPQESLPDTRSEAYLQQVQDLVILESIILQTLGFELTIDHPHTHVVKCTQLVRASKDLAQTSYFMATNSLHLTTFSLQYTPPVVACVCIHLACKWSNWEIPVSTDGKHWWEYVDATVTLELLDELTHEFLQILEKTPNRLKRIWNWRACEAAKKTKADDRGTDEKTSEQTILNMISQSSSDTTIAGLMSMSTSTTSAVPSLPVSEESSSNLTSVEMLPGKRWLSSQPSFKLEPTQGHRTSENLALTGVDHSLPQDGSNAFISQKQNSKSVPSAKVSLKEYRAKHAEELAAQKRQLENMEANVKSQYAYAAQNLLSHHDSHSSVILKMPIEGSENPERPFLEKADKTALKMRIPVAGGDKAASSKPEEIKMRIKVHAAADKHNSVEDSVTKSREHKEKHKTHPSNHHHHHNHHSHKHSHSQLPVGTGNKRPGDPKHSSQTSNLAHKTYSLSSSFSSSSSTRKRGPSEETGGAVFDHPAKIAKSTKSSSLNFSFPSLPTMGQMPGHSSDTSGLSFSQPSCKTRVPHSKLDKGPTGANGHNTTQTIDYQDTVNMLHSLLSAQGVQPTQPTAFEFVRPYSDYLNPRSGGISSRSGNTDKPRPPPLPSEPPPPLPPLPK
Assay: CDK9 biochemical assay (Kinase-Glo Max luminescence)
Conditions: 30° C. for 45 minutes
Description: To each well of a 96-well plate was added 5× kinase assay buffer with 10 mM DTT (6 μL), 500 μM ATP (1 μL), 5×CDK substrate (10 μL), and water (8 μL). 5 μL of compound were added to the test and positive control groups, while 5 μL of solvent was added to the blank groups. […] Luminescence was measured on a microplate reader and IC50 values were calculated using Prism 9 software.
Experimental Endpoint: IC50

CC(C)OC(=O)COC[C@H](C)N[C@H]1CC[C@H](Nc2cc(-c3cccc(NCC4(C#N)CCOCC4)n3)c(Cl)cn2)CC1 | 0.005 to 0.01 µM
CCOC(=O)O[C@@H](C)n1nnc(COC[C@@H](C)N[C@H]2CC[C@H](Nc3cc(-c4cccc(NCC5(C#N)CCOCC5)n4)c(Cl)cn3)CC2)n1 | > 0.01 µM
C[C@@H](COCC(=O)O)NC1CCC(Nc2cc(-c3cccc(NCC4(C#N)CCOCC4)n3)c(Cl)cn2)CC1 (stereo partly shown) | 0.005 to 0.01 µM

IC50 measured on CCOC(=O)O[C@H](C)n1nnnc1COC[C@H](C)N[C@H]1CC[C@H](Nc2cc(-c3cccc(NCC4(C#N)CCOCC4)n3)c(Cl)cn2)CC1 = > 0.01 µM

###

The following molecules are shown together with reported pEC50 values.
Test system: Hep3B cells
Assay: Cancer cell viability assay (CellTiter-Glo 2.0), Hep3B
Type: cell-based, Human
Settings: 72 hours compound treatment
pEC50: −log10 of the molar value.

The examples below pair each entry with its known result.
CCOC(=O)O[C@H](C)n1nnc(COC[C@@H](C)N[C@H]2CC[C@H](Nc3cc(-c4cccc(NCC5(C#N)CCOCC5)n4)c(Cl)cn3)CC2)n1 [Compound 21] | 6.00 to 6.30
C[C@H](COCc1nn[nH]n1)N[C@H]1CC[C@H](Nc2cc(-c3cccc(NCC4(C#N)CCOCC4)n3)c(Cl)cn2)CC1 [Compound 2] | < 6.00
CCOC(=O)O[C@@H](C)n1nnc(COC[C@H](C)N[C@H]2CC[C@H](Nc3cc(-c4cccc(NCC5(C#N)CCOCC5)n4)c(Cl)cn3)CC2)n1 [Compound 25] | < 6.00

Here's the next entry for you.
Item: CCOC(=O)O[C@H](C)n1nnc(COC[C@H](C)N[C@H]2CC[C@H](Nc3cc(-c4cccc(NCC5(C#N)CCOCC5)n4)c(Cl)cn3)CC2)n1 [Compound 22] | System: Hep3B cells | pEC50: 6.00 to 6.30

Origin of values: patent US11591322B2
